- STUDY_SYSTEM: VAP-1/SSAO cell (Homo sapiens (Human))
- Sequence (Q16853 whole entry): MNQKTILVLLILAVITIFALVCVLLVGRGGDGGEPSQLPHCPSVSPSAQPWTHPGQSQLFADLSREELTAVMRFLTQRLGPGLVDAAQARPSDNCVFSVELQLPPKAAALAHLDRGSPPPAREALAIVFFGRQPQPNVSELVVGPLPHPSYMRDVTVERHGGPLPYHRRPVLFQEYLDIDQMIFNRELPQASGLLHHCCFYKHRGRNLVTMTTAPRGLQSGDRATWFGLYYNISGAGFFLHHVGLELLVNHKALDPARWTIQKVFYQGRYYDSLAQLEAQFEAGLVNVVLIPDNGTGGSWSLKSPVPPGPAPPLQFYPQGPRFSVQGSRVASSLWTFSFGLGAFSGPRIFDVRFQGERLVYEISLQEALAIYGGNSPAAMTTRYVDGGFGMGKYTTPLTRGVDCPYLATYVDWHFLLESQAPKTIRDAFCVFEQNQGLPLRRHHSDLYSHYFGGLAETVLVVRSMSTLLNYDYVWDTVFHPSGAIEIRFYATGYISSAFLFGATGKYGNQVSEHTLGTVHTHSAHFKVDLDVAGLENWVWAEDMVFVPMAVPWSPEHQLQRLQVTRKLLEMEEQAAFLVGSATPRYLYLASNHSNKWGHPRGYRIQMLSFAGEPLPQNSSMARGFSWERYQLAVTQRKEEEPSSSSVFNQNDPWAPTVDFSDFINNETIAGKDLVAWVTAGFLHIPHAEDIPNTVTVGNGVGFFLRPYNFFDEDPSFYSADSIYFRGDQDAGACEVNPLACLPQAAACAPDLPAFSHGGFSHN
- TEST_METHOD_NOTES: VAP-1 cell activity assay (HUVEC or CHO cells transfected with VAP-1/pCDNA (3.1) plasmid, Amplex Red)
- CONDITION_LABEL: VAP-1 transfected HUVEC or CHO cells; read-out: VAP-1/SSAO cell activity assay test IC50
pIC50: −log10 of the molar value.
READOUT_KIND: pIC50

- SMI: "CC(C)n1nc(-c2ccc(OC/C(=C/F)CN)cc2)nc1C1CC1"
  STUDY_SYSTEM: "VAP-1/SSAO cell (Homo sapiens (Human))"
  READOUT_KIND: "pIC50"
  MEASURED_NUMBER: 8.66
